assay.summary: Solubility assessment in solvents (visual)
Format: physicochemical
test.context: MEK, 25 °C, organic solvent or mixture, thermodynamic from solid, MEK, 5 vol, 25° C.; read-out: Observations from solubility assessment
observed.property: solubility

What value of solubility has been recorded for this entry: `O=C1C[C@H](c2cc(F)c(F)c(F)c2)CN1Cn1ncnc1Cl`
> 200 mg/mL
